# MEASURED TARGET: T1, recombinant human activated Factor VII (FVIIa) (human, UniProt P08709 61-212; P08709 213-466, ten glutamate residues of the Gla domain may be gamma-carboxylated)
# T1 construct: chains tethered by a disulfide bond; also called Factor VIIa; rFVIIa
# T1 sequence 1: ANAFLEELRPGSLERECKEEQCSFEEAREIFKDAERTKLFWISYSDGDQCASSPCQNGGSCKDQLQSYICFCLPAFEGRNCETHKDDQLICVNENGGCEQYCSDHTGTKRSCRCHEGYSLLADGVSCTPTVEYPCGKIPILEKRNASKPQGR
# T1 sequence 2: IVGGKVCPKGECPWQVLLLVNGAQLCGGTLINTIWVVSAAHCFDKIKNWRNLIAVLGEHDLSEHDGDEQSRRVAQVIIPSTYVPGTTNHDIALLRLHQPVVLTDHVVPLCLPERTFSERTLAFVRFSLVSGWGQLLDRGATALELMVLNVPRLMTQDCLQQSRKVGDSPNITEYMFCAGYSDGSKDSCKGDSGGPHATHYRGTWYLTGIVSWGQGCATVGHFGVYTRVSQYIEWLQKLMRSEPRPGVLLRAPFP
# PROTOCOL SUMMARY: BLI (Fortebio)
Recorded pKd values for a group of binders are listed next.
# pKd is unitless: minus log10 of the molar concentration; print number only

Known pKd results, listed for orientation:
VH SEQ ID NO 530 / VL SEQ ID NO 470 (antibody, IgG4, V domains shown, humanized 11F2; IgG4 S228P/kappa) VH: QVQLQESGPGLVEPSQTLSLTCTVSGYSISSDSAWSWIRQPPGKGLEWIGYIQYSGSTNYNPSLKSRVTISRDTSKNQFSLKLSSVTAADTAVYYCARSVNYYGNSFAVGYWGQGTLVTVSS VL: EIVLTQSPATLSLSPGERATLSCRASQGVSDYLHWYQQKPGQAPRLLIKYASQPATGIPARFSGSGSGTDFTLTISSLEPEDFAVYYCQNGHSFPLTFGQGTKLEIK : 9.02
VH SEQ ID NO 610 / VL SEQ ID NO 358 (antibody, IgG4, V domains shown, humanized 11F2; IgG4 S228P/kappa) VH: QVQLQESGPGLVKPSQTLSLTCTVSGGSITSDSAWSWIRQPPGKGLEWIGYIQYSGSTNYNPSLKSRVTISVDTSKNQFSLKLSSVTAADTAVYYCARSVNYYGNSFAVGYWGQGTLVTVSS VL: EIVLTQSPATLSLSPGERATLSCRASQGISDYLHWYQQKPGQAPRLLIKYTSQPATGIPARFSGSGSGTDFTLTISSLEPEDFAVYYCQNGHSFPLTFGQGTKLEIK : 7.96

Shift focus to the following entry.
I have this binder here, VH SEQ ID NO 650 / VL SEQ ID NO 366 (antibody, IgG4, V domains shown, humanized 11F2; IgG4 S228P/kappa) VH: QVQLQESGPGLVKPSQTLSLTCTVSGYSISSDSAWSWIRQPPGKKLEWIGYIQYSGSTNYNPSLKSRVTISRDTSKNQFSLKLSSVTAADTAVYYCARSVNYYGNSFAVGPWGQGTLVTVSS VL: EIVLTQSPATLSLSPGERATLSCRASQGLSDYLAWYQQKPGEAPRLLIKYASQPATGIPARFSGSGSGTDFTLTISSLEPEDFAVYYCQNGHSFPLTFGQGTKLEIK , and I need its recorded pKd.
7.46
